Each recorded value in this set is attributed to PubChem BioAssay.

The entries below come with measured inhibition values attached.
experiment: blockers of RIG-like receptor reporter activation – cell-based, Sendai virus stimulus, luciferase, 10K MLSCN set, TLR/RLR signaling modifier project, primary screen (AID 602276); conditions: HEK293 RL24 IRF3 luciferase reporter, at 10 µM, hits give high values;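 note: firefly luciferase from ISG56 promoter only with Renilla not read in this screen; 0% = Sendai virus plus DMSO and 100% = medium plus DMSO without virus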
parameterMeasured: inhibition (%)

compound="COc1ccc2c(c1)C1(Nc3ccccc3-c3nc4ccccc4n31)C(=O)N2 (stereo unspecified)" experimentalvalue=17.4
compound=O=C(O)c1ccc(-n2nc(C(F)(F)F)c3c2-c2ccoc2CC3)cc1 experimentalvalue=3.92
compound=Clc1ccccc1OCCCCn1ccnc1 experimentalvalue=-3.32
compound="O=C(CN1C(=O)CC(c2ccco2)Sc2ccccc21)Nc1ccc2c(c1)OCCO2 (stereo unspecified)" experimentalvalue=14.9
compound=COCCn1c(=NC(=O)CSC(C)=O)sc2cc(F)ccc21 experimentalvalue=13.7
compound="COc1ccccc1NC(=O)C1CC(=O)N(c2ccc(F)cc2)C1 (stereo unspecified)" experimentalvalue=-15.4
compound=CCOCC(=O)Nc1ccc(S(=O)(=O)N2CCOCC2)cc1 experimentalvalue=12
compound=Cc1c(NC(=O)c2ccc(COc3ccc4ccccc4c3)o2)c(=O)n(-c2ccccc2)n1C experimentalvalue=-13.4
compound="CC(C)OC(=O)c1cc(NC(=O)C2C3CCC(O3)C2C(=O)O)cc(C(=O)OC(C)C)c1 (stereo unspecified)" experimentalvalue=20.3
compound=COCCOC(=O)c1cc(C(=O)c2cc(F)ccc2O)coc1=N experimentalvalue=6.76
compound=CCOc1ccc(NCCC(=O)c2ccc3c(c2)OCO3)cc1 experimentalvalue=2.87
